# Test system: RV-HG UL56-R369M
# test: GFP-RA, marker transfer mutant
# Type: cell-based, human cytomegalovirus (HCMV)
# condition.notes: RV-HG UL56-R369M, fluorescence reduction assay, mean ± SD; read-out: EC50
measurement.type: EC50 (nM)

[
  {
    "molecule": "OC[C@H]1O[C@@H](n2c(Br)nc3cc(Cl)c(Cl)cc32)[C@H](O)[C@@H]1O [BDCRB]",
    "target": "RV-HG UL56-R369M",
    "reported.measurement": 110
  }
]

---

# System: HCMV AD169 mutant rAIC246-10 (UL56 V236M)
# test: CPE-RA, letermovir-selected mutant
# Type: cell-based, human cytomegalovirus (HCMV)
# condition.notes: Human betaherpesvirus 5, AD169; rAIC246-10 (UL56 V236M), CPE reduction assay, mean ± SD

[
  {
    "compound": "COc1cccc(N2CCN(C3=Nc4c(F)cccc4[C@H](CC(=O)O)N3c3cc(C(F)(F)F)ccc3OC)CC2)c1 [Letermovir]",
    "reading.unit": "nM",
    "EC50": 70
  },
  {
    "compound": "Nc1nc(O)c2ncn(COC(CO)CO)c2n1 [Ganciclovir]",
    "reading.unit": "nM",
    "EC50": 1700
  }
]

---

# System: RV-HG UL56-C325Yrev
# test: GFP-RA, marker transfer revertant
# Format: cell-based, human cytomegalovirus (HCMV)
# condition.notes: RV-HG UL56-C325Yrev, fluorescence reduction assay, mean ± SD; read-out: EC50
pEC50: −log10 of the molar value.
measurement.type: pEC50

[
  {
    "chem.smiles": "OC[C@H]1O[C@@H](n2c(Br)nc3cc(Cl)c(Cl)cc32)[C@H](O)[C@@H]1O",
    "reported.measurement": 6.54
  }
]

---

# System: RV-HG UL56-C325Y
# test: GFP-RA, marker transfer mutant
# Assay type: cell-based, human cytomegalovirus (HCMV)
# condition.notes: Human betaherpesvirus 5
pEC50: −log10 of the molar value.
measurement.type: pEC50

[
  {
    "compound": "Nc1nc(O)c2ncn(COC(CO)CO)c2n1 [Ganciclovir]",
    "reported.measurement": 5.68
  },
  {
    "compound": "Nc1nc2c(ncn2COCCO)c(=O)[nH]1 [Aciclovir]",
    "reported.measurement": 4.31
  }
]

---

# System: RV-HG UL56-V231L
# test: GFP-RA, marker transfer mutant
# Format: cell-based, human cytomegalovirus (HCMV)
# condition.notes: Human betaherpesvirus 5
measurement.type: EC50 (µM)

[
  {
    "chem.smiles": "O=C(O)P(=O)(O)O",
    "target": "RV-HG UL56-V231L",
    "measurement.type": "EC50",
    "reading.unit": "µM",
    "reported.measurement": 67
  }
]

---

# System: RV-HG UL56-L241P/R369S
# test: GFP-RA, marker transfer mutant
# Assay type: cell-based, human cytomegalovirus (HCMV)
# condition.notes: RV-HG UL56-L241P/R369S, fluorescence reduction assay, mean ± SD; read-out: EC50

[
  {
    "chem.smiles": "OC[C@H]1O[C@@H](n2c(Br)nc3cc(Cl)c(Cl)cc32)[C@H](O)[C@@H]1O",
    "EC50, nM": 300
  }
]

---

# System: RV-HG UL56-C325Y
# test: GFP-RA, marker transfer mutant
# Type: cell-based, human cytomegalovirus (HCMV)
# condition.notes: Human betaherpesvirus 5; RV-HG UL56-C325Y, fluorescence reduction assay, mean ± SD; read-out: EC50
EC50 strictly less than 30000 nM = Met. Otherwise Not met.

[
  {
    "compound": "CC(C)Nc1nc2cc(Cl)c(Cl)cc2n1[C@H]1O[C@@H](CO)[C@H](O)[C@@H]1O [Maribavir]",
    "class.label": "Met"
  },
  {
    "compound": "COc1cccc(N2CCN(C3=Nc4c(F)cccc4[C@H](CC(=O)O)N3c3cc(C(F)(F)F)ccc3OC)CC2)c1 [Letermovir]",
    "class.label": "Met"
  },
  {
    "compound": "CN(C)c1cccc2c(S(=O)(=O)Nc3ccc(NC(=O)C(C)(C)CO)cc3)cccc12 [BAY384766]",
    "class.label": "Met"
  },
  {
    "compound": "Nc1ccn(C[C@@H](CO)OCP(=O)(O)O)c(=O)n1 [Cidofovir]",
    "class.label": "Met"
  },
  {
    "compound": "O=C(O)P(=O)(O)O [Foscarnet]",
    "class.label": "Not met"
  },
  {
    "compound": "N#CC1(C(=O)Nc2cc(F)cc(NS(=O)(=O)c3ccc(-c4noc(-c5cccc(N)n5)n4)cc3)c2)CC1 [Formula (X)]",
    "class.label": "Met"
  }
]

---

# Tested on: RV-HG UL56-R369S
# test: GFP-RA, marker transfer mutant
# Format: cell-based, human cytomegalovirus (HCMV)
# condition.notes: Human betaherpesvirus 5
pEC50: −log10 of the molar value.

[
  {
    "molecule": "CN(C)c1cccc2c(S(=O)(=O)Nc3ccc(NC(=O)C(C)(C)CO)cc3)cccc12 [BAY384766]",
    "pEC50": 6.17
  }
]

---

# Tested on: RV-HG UL56-V236M
# test: GFP-RA, marker transfer mutant
# Assay type: cell-based, human cytomegalovirus (HCMV)
# condition.notes: Human betaherpesvirus 5
pEC50: −log10 of the molar value.

[
  {
    "chem.smiles": "Nc1nc(O)c2ncn(COC(CO)CO)c2n1",
    "pEC50": 5.81
  },
  {
    "chem.smiles": "Nc1nc2c(ncn2COCCO)c(=O)[nH]1",
    "pEC50": 4.10
  }
]

---

Reported EC50 values for the following compounds.
# Tested on: RV-HG (wt-HCMV)
# test: HCMV fluorescence reduction assay (GFP-RA)
# Format: cell-based, human cytomegalovirus (HCMV)
# condition.notes: Human betaherpesvirus 5

[
  {
    "chem.smiles": "Nc1nc(O)c2ncn(COC(CO)CO)c2n1",
    "target": "RV-HG (wt-HCMV)",
    "EC50, µM": 2.21
  },
  {
    "chem.smiles": "Nc1nc2c(ncn2COCCO)c(=O)[nH]1",
    "target": "RV-HG (wt-HCMV)",
    "EC50, µM": 74
  }
]

---

Reported pEC50 values for the following compounds.
# Test system: HCMV AD169 mutant rAIC246-5 (UL56 R369M)
# test: CPE-RA, letermovir-selected mutant
# Format: cell-based, human cytomegalovirus (HCMV)
# condition.notes: Human betaherpesvirus 5, AD169; rAIC246-5 (UL56 R369M), CPE reduction assay, mean ± SD
pEC50: −log10 of the molar value.
measurement.type: pEC50

[
  {
    "chem.smiles": "Nc1nc(O)c2ncn(COC(CO)CO)c2n1",
    "target": "HCMV AD169 mutant rAIC246-5 (UL56 R369M)",
    "reported.measurement": 5.30
  },
  {
    "chem.smiles": "COc1cccc(N2CCN(C3=Nc4c(F)cccc4[C@H](CC(=O)O)N3c3cc(C(F)(F)F)ccc3OC)CC2)c1",
    "target": "HCMV AD169 mutant rAIC246-5 (UL56 R369M)",
    "reported.measurement": 6.96
  }
]

---

# Test system: RV-HG UL56-L241P
# test: GFP-RA, marker transfer mutant
# Type: cell-based, human cytomegalovirus (HCMV)
# condition.notes: RV-HG UL56-L241P, fluorescence reduction assay, mean ± SD; read-out: EC50
pEC50: −log10 of the molar value.

[
  {
    "chem.smiles": "OC[C@H]1O[C@@H](n2c(Br)nc3cc(Cl)c(Cl)cc32)[C@H](O)[C@@H]1O",
    "pEC50": 6.57
  }
]
